Answer each item with its documented collision cross section in nitrogen.
Assay: collision cross section in nitrogen (drift tube, single-field); higher = larger gas-phase ion size;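 further: chemical standards at 10 µM analysed by drift tube IMS-QTOF MS in about 3.95 torr nitrogen, mean of duplicate injections differing ≤1%, mass error below 10 ppm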
Details: ion type: [M-H]; ion source: ESI; ion mode: Negative
Where a name gives a salt, the structure may show the parent alone.
Number in Å², nothing else.

Entry O=S(=O)(O)C(F)(F)C(F)(F)C(F)(F)C(F)(F)C(F)(F)C(F)(F)F [Potassium perfluorohexanesulfonate] , collision cross section in nitrogen reported as 150.9

Looking up CC1(c2ccc(Oc3ccccc3)cc2)OC(=O)N(Nc2ccccc2)C1=O (centres undefined) , I see its collision cross section in nitrogen listed as 195.7

collision cross section in nitrogen in this record for `O=C(Nc1ccccc1)c1ccccc1I` : 155.4

Sample OCc1ncccc1O [3-Hydroxy-2-(hydroxymethyl)pyridine hydrochloride] ; collision cross section in nitrogen observed: 119.9

Please fill in: collision cross section in nitrogen reported for `O=[N+]([O-])c1ccc2[nH]cnc2c1` = 123.6

Lookup result for CCCCCCCCCCCCCOS(=O)(=O)O [Sodium tridecyl sulfate] ; measured collision cross section in nitrogen: 170

In plain terms, `CN(C)C(=O)Nc1ccc(Cl)cc1` has a documented collision cross section in nitrogen of 142.4

The recorded collision cross section in nitrogen for `CCCCc1nc2cccnc2n1Cc1ccc(-c2ccccc2-c2nnn[nH]2)cc1` is 204.3

For reference, reported collision cross section in nitrogen for `Oc1ccccc1O` stands at 116.1

Reported collision cross section in nitrogen of `O=c1[nH]c(=O)c2c[nH]nc2[nH]1` : 122.3

The compound listed as `Oc1c(Cl)ccc(Cl)c1Cl` shows collision cross section in nitrogen equal to 128.9

// sample C[C@]12CC[C@H]3[C@@H](CCC4=CC(=O)CC[C@@]43C)[C@@H]1CC[C@@H]2C(=O)CO [21-Hydroxyprogesterone] , its collision cross section in nitrogen was 186.5

Recorded collision cross section in nitrogen (compound `CCCCCCCCP(=O)(O)O` ): 149.9

Form field collision cross section in nitrogen, entry `CC(C)N1C(=O)c2ccccc2NS1(=O)=O` : 146.9

The recorded collision cross section in nitrogen for `C#C[C@]1(O)CC[C@H]2[C@@H]3CCc4cc(O)ccc4[C@H]3CC[C@@]21C` is 182.3

Recorded result, `Cc1ccc(S(=O)(=O)C(I)I)cc1` , collision cross section in nitrogen: 151.9

Lab note: measured collision cross section in nitrogen of CCCCOC(=O)C(C)CC (centres undefined) [Butyl 2-methylbutyrate] was 146.8

Sure, the documented collision cross section in nitrogen for CNC(=N[N+](=O)[O-])NCC1CCOC1 (centres undefined) [1-Methyl-2-nitro-3-((tetrahydrofuran-3-yl)methyl)guanidine] is 148.7

# collision cross section in nitrogen of `O=[N+]([O-])c1ccc(C=Cc2ccc([N+](=O)[O-])cc2S(=O)(=O)O)c(S(=O)(=O)O)c1` = 182.4

* * *

Give measured collision cross section in nitrogen for each item. Keep answers brief.
Assay: collision cross section in nitrogen (drift tube, single-field); higher = larger gas-phase ion size
Conditions: ion type: [M-H]; ion source: ESI; ion mode: Negative
Structures can show the parent of a compound that is named as a salt.
Entry rule: numbers only, all in Å².

The value of collision cross section in nitrogen measured for the compound `CCCCCCCCCCCCc1ccccc1O` turned out to be 173.8

Sample Oc1ccc2c(c1)-c1ccccc1C2 [3-Hydroxyfluorene] ; collision cross section in nitrogen observed: 142.4

Entry under test: O=C1OC[C@H](Cc2cccc(O)c2)[C@H]1Cc1cccc(O)c1 [(-)-Enterolactone] . Its collision cross section in nitrogen was 165.3

For reference, reported collision cross section in nitrogen for `O=C(O)Cn1c(=O)n(Cc2ccc(Br)cc2F)c(=O)c2ccc(Cl)cc21` stands at 188.9

// CC1CNc2c(cccc2S(=O)(=O)N[C@@H](CCCNC(=N)N)C(=O)N2CC[C@@H](C)C[C@@H]2C(=O)O)C1 (stereo partly drawn) : collision cross section in nitrogen value = 207.5

What the record says about C[C@@H]1CCN(C(=O)[C@H](CCCNC(=N)N)NS(=O)(=O)c2cccc3c2NC[C@H](C)C3)[C@@H](C(=O)O)C1 [Argatroban monohydrate] : collision cross section in nitrogen is 207.8

Looking up `CC(=O)c1ccc2c(c1)[C@H](NC(=O)c1ccc(F)cc1)[C@@H](O)C(C)(C)O2` , I found its collision cross section in nitrogen recorded as 186

The recorded collision cross section in nitrogen for `O=c1cc[nH]c(=S)[nH]1` is 116.1

# collision cross section in nitrogen (compound: `Oc1ccc(/C=C/c2cc(O)cc(O)c2)cc1` ) is 159.3

compound `CC(C)(C)c1cc(C(C)(C)C)c(O)c(C(C)(C)C)c1` , collision cross section in nitrogen observed: 173.2

Form field collision cross section in nitrogen, entry `CN(C)c1ccc(/N=N/c2ccccc2C(=O)O)cc1` : 175.2

Value of measured collision cross section in nitrogen for the entry `CC(C)(O)c1cnn2c(-c3ccc(F)c(-c4c(F)cccc4C#N)c3)cnc2n1` : 198.6

The recorded collision cross section in nitrogen for entry `Oc1ccc2ccccc2c1` equals 128.7

collision cross section in nitrogen for COc1ccnc(CS(=O)c2nc3cc(OC(F)F)ccc3[nH]2)c1OC (stereo not drawn) [Pantoprazole sodium] is 187

The measured collision cross section in nitrogen associated with `CC(=O)c1ccc(N)cc1` reads 125

Input `Clc1ccc(-c2nc3sccn3c2/C=N/OCc2ccc(Cl)c(Cl)c2)cc1` . Output collision cross section in nitrogen: 199

collision cross section in nitrogen recorded for this compound, O=[N+]([O-])O [Nitric acid, calcium salt (2:1)] , is 104.5

For record `CC1=CC(=O)NS(=O)(=O)O1` the listed collision cross section in nitrogen is 125.1

* * *

Assay: collision cross section in nitrogen (drift tube, single-field); higher = larger gas-phase ion size
Conditions: ion type: [M-H]; ion source: ESI; ion mode: Negative
Counter-ions that a name gives are not always drawn.
quantity name: collision cross section in nitrogen (Å²)
Numeric answer only, unit Å² assumed.

Reported collision cross section in nitrogen of `CN/C(=N\[N+](=O)[O-])NCc1cnc(Cl)s1` : 151.8

Given item O=C(c1ccccc1)c1ccc(O)c(O)c1O [2,3,4-Trihydroxbenzophenone] , the value recorded as its collision cross section in nitrogen is 151.1

Record CC(C)c1ccc(S(=O)(=O)O)cc1 [Sodium 4-isopropylbenzenesulfonate] , field collision cross section in nitrogen: 147.5

The molecule `O=C1c2ccc(O)c(O)c2C(=O)c2c(O)ccc(O)c21` showed collision cross section in nitrogen equal to 150.5

Per the records, this molecule ( `Cc1cc(Cl)ccc1O` ) has collision cross section in nitrogen equal to 124.8

Measured collision cross section in nitrogen of `CCCCCOC(=O)COc1cc(N2C(=O)C3=C(CCCC3)C2=O)c(F)cc1Cl` : 196.2

collision cross section in nitrogen recorded for this molecule, O=C(c1ccc(OCCN2CCCCC2)cc1)c1c(-c2ccc(O)cc2)sc2cc(O)ccc12 [Raloxifene hydrochloride] , is 213.4

// `O=[N+]([O-])c1cc([N+](=O)[O-])c2ccccc2c1` : collision cross section in nitrogen value = 138.9

* * *

Provide the recorded collision cross section in nitrogen for the entries that follow.
Test: collision cross section in nitrogen (drift tube, single-field); higher = larger gas-phase ion size
Conditions: ion type: [M-H]; ion source: ESI; ion mode: Negative
Structures can show the parent of a compound that is named as a salt.
All answers are understood in Å², so give the number only.

The compound O=[N+]([O-])O [Copper(II) nitrate trihydrate] showed collision cross section in nitrogen equal to 104.1

response.value for C=C[C@](C)(O)CC[C@@H]1[C@@]2(C)CCCC(C)(C)[C@@H]2CC[C@@]1(C)O [Sclareol] (field: collision cross section in nitrogen) = 178.9

Input OC(c1ccc(F)cc1)(c1cncnc1)c1ccccc1Cl (configuration not stated) [Nuarimol] . Output collision cross section in nitrogen: 170.7

According to the records, this compound Cc1cc(Br)ccc1NC(=O)CCl [2-Chloro-N-(2-methyl-4-bromophenyl)acetamide] displays collision cross section in nitrogen of 146

# collision cross section in nitrogen of Cc1ccccc1S(=O)(=O)O [Sodium 2-methylbenzenesulfonate] = 131.7

Measured collision cross section in nitrogen, CCC1(c2ccc(N)cc2)CCC(=O)NC1=O (configuration not stated) [Aminoglutethimide] : 158.8

GET /value?item= CC(C)c1c(C(=O)Nc2ccccc2)c(-c2ccccc2)c(-c2ccc(F)cc2)n1CC[C@@H](O)C[C@@H](O)CC(=O)O [Atorvastatin] &field=collision cross section in nitrogen returns 228.4

The compound listed as CC(C)(c1ccc(O)c(-c2ccccc2)c1)c1ccc(O)c(-c2ccccc2)c1 [BisOPP-A] shows collision cross section in nitrogen equal to 204

Recorded result, CCCCOC(=O)c1ccccc1C(=O)O [Monobutyl phthalate] , collision cross section in nitrogen: 151.7

Note to self: collision cross section in nitrogen recorded for O=C(Nc1ccccc1)c1cc(Cl)ccc1O [5-Chlorosalicylanilide] was 151.9

Nc1ccc2cc(S(=O)(=O)O)cc(O)c2c1N=Nc1ccccc1C(F)(F)F [Acid Red 337] has a reported collision cross section in nitrogen of 195.6

Sure, the documented collision cross section in nitrogen for O=[N+]([O-])c1cc[n+]([O-])cc1 [4-Nitropyridine-1-oxide] is 119.2

CS(=O)(=O)c1ccc([C@@H](C[C@H]2CCC(=O)C2)C(=O)Nc2cnccn2)cc1Cl [Piragliatin] yielded collision cross section in nitrogen of 204.3

Noted for Clc1ccc(Nc2nnc(Cc3ccncc3)c3ccccc23)cc1 [Vatalanib dihydrochloride] : its collision cross section in nitrogen reads 188.9

Lab book: collision cross section in nitrogen of COc1ccc(O)c(C(C)(C)C)c1 [2-tert-Butyl-4-methoxyphenol] noted as 142.3

The measured collision cross section in nitrogen associated with O=[N+]([O-])c1ccc(-c2nnc(O)o2)o1 [5-(5-Nitro-2-furyl)-1,3,4-oxadiazole-2-ol] reads 135.2

Value of measured collision cross section in nitrogen for the entry CCCOC(=O)c1ccc(O)cc1 [Propylparaben] : 142.9

Looking up CC(C)(Oc1ccc(C2CC2(Cl)Cl)cc1)C(=O)O (configuration not stated) [Ciprofibrate] , I see its collision cross section in nitrogen listed as 171.9

// collision cross section in nitrogen lookup, compound = O=C(c1ccc(O)cc1O)c1ccc(O)cc1O [2,2',4,4'-Tetrahydroxybenzophenone] , result: 152.3

collision cross section in nitrogen reported for this compound O=C1OC2(c3ccccc31)c1cc(I)c(O)c(I)c1Oc1c2cc(I)c(O)c1I [FD&C Red 3] : 217.9

Reported collision cross section in nitrogen ( Cc1ccc(NC=O)c(C)c1 [N-(2,4-Dimethylphenyl)formamide] ) = 133.8

Lab book: collision cross section in nitrogen of NC(=O)Nc1ccc(Cl)c(Cl)c1 [N-(3,4-Dichlorophenyl)urea] noted as 135.7

collision cross section in nitrogen reading for O=C1NC(=O)c2cccc3cccc1c23 [1H-Benzo[de]isoquinoline-1,3(2H)-dione] : 140.8

O=C(O)C(F)(F)C(F)(F)C(F)(F)C(F)(F)C(F)(F)C(F)(F)C(F)(F)C(F)(F)F [Perfluorononanoic acid] yielded collision cross section in nitrogen of 166.1

So, Cc1ccc(N/N=c2\c(=O)cc/c(=N/Nc3ccc(S(=O)(=O)O)cc3)c2=O)c(C)c1 [C.I. Acid Orange 24, monosodium salt] ? Its collision cross section in nitrogen was 221

// collision cross section in nitrogen value for CCCCC(=O)O[C@]1(C(=O)CO)[C@@H](C)C[C@H]2[C@@H]3CCC4=CC(=O)C=C[C@]4(C)[C@@]3(F)[C@@H](O)C[C@@]21C [Betamethasone valerate] : 215.5

Form: compound = Nc1c(S(=O)(=O)O)cc(Nc2ccccc2)c2c1C(=O)c1ccccc1C2=O [Acid Blue 25] ; collision cross section in nitrogen = 191.1

For reference, reported collision cross section in nitrogen for CCN(Cc1cccc(S(=O)(=O)O)c1)c1ccc(C(=C2C=CC(=[N+](CC)Cc3cccc(S(=O)(=O)O)c3)C=C2)c2ccccc2S(=O)(=O)[O-])cc1 [FD&C Blue No. 1] stands at 257.6

The reported collision cross section in nitrogen of the compound CCCCOC(=O)CCCCCCCC(=O)OCCCC [Dibutyl azelate] was 176

Lab book: collision cross section in nitrogen of O=C1c2ccccc2C(=O)c2cc(S(=O)(=O)O)ccc21 [Sodium 2-anthraquinonesulfonate] noted as 162

// C=CC(=O)NC(C)(C)CS(=O)(=O)O [2-Acrylamido-2-methyl-1-propanesulfonic acid] : collision cross section in nitrogen value = 141.5

# compound O=C(O)C1C(C(=O)O)C2(Cl)C(Cl)=C(Cl)C1(Cl)C2(Cl)Cl (configuration not stated) [Chlorendic acid] ; its collision cross section in nitrogen = 159

Reference source: the supplement of paper PMC12317010
